Measured values drawn from patent US20100323969 for this set.

Target: T1, human P-selectin IgG-Fc chimera (human, UniProt P16109)
T1 chain: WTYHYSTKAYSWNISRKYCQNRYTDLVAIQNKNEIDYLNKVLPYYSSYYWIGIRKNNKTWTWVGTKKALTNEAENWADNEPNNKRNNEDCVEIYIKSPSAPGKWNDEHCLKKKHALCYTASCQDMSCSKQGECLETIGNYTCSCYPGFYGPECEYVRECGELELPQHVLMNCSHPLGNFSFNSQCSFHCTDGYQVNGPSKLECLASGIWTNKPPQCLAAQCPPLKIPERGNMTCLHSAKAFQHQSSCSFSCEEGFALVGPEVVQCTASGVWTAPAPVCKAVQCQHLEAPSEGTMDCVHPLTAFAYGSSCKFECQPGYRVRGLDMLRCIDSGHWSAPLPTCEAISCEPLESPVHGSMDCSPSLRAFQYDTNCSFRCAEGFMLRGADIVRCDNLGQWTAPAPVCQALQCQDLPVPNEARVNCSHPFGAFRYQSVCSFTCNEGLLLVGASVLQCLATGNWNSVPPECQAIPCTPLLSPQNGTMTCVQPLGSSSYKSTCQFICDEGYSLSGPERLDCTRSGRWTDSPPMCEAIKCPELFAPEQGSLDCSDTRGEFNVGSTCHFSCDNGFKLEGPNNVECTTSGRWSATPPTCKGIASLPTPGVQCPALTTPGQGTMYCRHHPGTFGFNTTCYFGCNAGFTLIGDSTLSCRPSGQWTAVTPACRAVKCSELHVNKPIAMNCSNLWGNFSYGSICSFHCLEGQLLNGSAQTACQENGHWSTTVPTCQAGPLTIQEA
Experiment: competition ELISA
Ends that are not written are not given here. * marks the point of attachment. Galloyl = O=C(c1cc(O)c(O)c(O)c1)*
READOUT_LABEL: pIC50
// returns pIC50 (minus log10 of molar concentration), number only

BINDER | pIC50
CDVEWVDVSSLEWDLPC [TM11] | 5.70
EWVDV [A29] | 5.10
DWVDV [A129] | 4.80

Continue with the binder presented below.
## Task Give its pIC50 value. Item: Galloyl-EWVDV [Compound 13 (GA-EWVDV)]
## Result 7.51
